target: human recombinant adrenergic α1D receptor (Homo sapiens, UniProt P25100); construct: expressed in transfected cells; host or cells: HEK-293 cells; experiment: Adrenergic α1D radioligand binding ([3H]Prozosin); details: 1 μM; read-out: Adrenergic α1D, inhibition of ligand binding (1 μM)
Sequence (P25100 whole entry): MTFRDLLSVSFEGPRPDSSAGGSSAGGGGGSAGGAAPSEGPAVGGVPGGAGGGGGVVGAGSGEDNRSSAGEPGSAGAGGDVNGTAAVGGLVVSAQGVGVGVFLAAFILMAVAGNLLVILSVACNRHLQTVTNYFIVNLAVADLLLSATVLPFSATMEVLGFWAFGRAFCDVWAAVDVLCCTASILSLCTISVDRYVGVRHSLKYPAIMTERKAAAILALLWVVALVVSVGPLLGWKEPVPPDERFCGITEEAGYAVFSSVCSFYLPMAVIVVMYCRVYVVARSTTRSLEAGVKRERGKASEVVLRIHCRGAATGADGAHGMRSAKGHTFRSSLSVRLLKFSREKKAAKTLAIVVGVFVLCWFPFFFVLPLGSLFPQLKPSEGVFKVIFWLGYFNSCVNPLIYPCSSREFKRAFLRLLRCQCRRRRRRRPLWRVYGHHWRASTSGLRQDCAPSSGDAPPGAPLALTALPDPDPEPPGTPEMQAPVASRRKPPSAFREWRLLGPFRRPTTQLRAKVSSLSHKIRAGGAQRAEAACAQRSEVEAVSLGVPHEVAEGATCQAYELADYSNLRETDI
quantity: inhibition at 1 µM (%)
Give bare numbers, in %.

Check out these entries, answers already filled in.
* C/C(=C\n1c2c(c3cc(C)ccc31)C1CCC(C2)N1C)c1ccc(Cl)cc1 (centres unmarked) [Compound 116] | 40
* Cc1ccc2c(c1)c1c(n2CCc2ccccc2)CC2CCCC1N2C (centres unmarked) [Compound 56] | 65
* CN1C2CCC1c1c(n(CCC(=O)N3CCNCC3)c3ccc(Cl)cc13)C2 (centres unmarked) [Compound 9] | 9
* CN1C2CCC1c1c(n(CC(=O)c3ccccc3)c3ccc(Cl)cc13)C2 (centres unmarked) [Compound 110] | 40
* CN1C2CCC1c1c(n(CCc3ccc(C(F)(F)F)nc3)c3cc(F)c(Cl)cc13)C2 (centres unmarked) [Compound 77] | 37
* C/C(=C\n1c2c(c3cc(C)ccc31)C1CCC(C2)N1C)c1ccc(F)cc1 (centres unmarked) [Compound 124] | 67

Each compound below has a reported value. Please supply its inhibition at 1 µM.
1. Cc1ccc(CCCn2c3c(c4cc(Cl)ccc42)C2CCC(C3)N2C)cn1 (centres unmarked) [Compound 38]
2. CN1C2CCC1c1c(n(CC(=O)N3CCOCC3)c3ccc(Cl)cc13)C2 (centres unmarked) [Compound 59]

[50, 2]
